System: Melanin-concentrating hormone receptor 1 (Homo sapiens, UniProt Q99705)
Sequence (Q99705 as listed by the source): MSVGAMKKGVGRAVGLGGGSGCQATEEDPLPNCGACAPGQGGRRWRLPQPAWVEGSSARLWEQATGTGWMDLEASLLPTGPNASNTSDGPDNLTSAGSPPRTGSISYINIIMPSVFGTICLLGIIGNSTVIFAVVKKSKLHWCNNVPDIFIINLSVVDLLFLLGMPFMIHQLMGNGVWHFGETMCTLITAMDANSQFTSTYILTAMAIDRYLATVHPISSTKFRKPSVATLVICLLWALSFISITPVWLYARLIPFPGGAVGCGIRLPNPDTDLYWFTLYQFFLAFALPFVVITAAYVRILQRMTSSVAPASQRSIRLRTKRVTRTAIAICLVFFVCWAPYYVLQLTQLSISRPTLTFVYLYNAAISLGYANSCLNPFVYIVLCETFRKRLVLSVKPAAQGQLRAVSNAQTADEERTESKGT
pKi: −log10 of the molar value. Positions of bridges follow the written chain, without caps; N, C: chain ends. Non-standard residues stand in square brackets, D forms with d. Residues, ends and D or L forms follow the SMILES beside them. *: point of attachment. Pentanoyl(5-guanidino) = NC(N)=NCCCCC(=O)*; Abu = CC[C@H](N)C(=O)O; Aoc = NCCCCCCCC(=O)O; Ava = NCCCCC(=O)O
pKi vs 7: at or above is criterion met, below is criterion not met.

### Prompt API: above_or_equal(metric=pKi, cutoff=7) for item CSCC[C@@H]1NC(=O)[C@@H](NC(=O)CCCCN=C(N)N)CSSC[C@@H](C(N)=O)NC(=O)CCCCNC(=O)[C@H](Cc2ccc(O)cc2)NC(=O)[C@H](C(C)C)NC(=O)[C@H](CCCN=C(N)N)NC(=O)CNC1=O [Gva6,desLeu9,Ava14,15] ({Pentanoyl(5-guanidino)}-CMGRVY[Ava]C-NH2; disulfide 1-8)
### Response criterion not met

### Prompt API: above_or_equal(metric=pKi, cutoff=7) for item CSCC[C@@H]1NC(=O)[C@@H](NC(=O)CCCCN=C(N)N)CSSC[C@@H](C(N)=O)NC(=O)CCCCNC(=O)[C@H](Cc2ccc(O)cc2)NC(=O)[C@H](C(C)C)NC(=O)[C@H](CCCN=C(N)N)NC(=O)CCCCNC1=O [Gva6,Ava9,10,Ava14,15] ({Pentanoyl(5-guanidino)}-CM[Ava]RVY[Ava]C-NH2; disulfide 1-8)
### Response criterion met

### Prompt API: above_or_equal(metric=pKi, cutoff=7) for item CC[C@@H]1NC(=O)[C@@H](NC(=O)CCCCN=C(N)N)CSSC[C@@H](C(N)=O)NC(=O)CCCCNC(=O)[C@H](Cc2ccc(O)cc2)NC(=O)[C@H](C(C)C)NC(=O)[C@H](CCCN=C(N)N)NC(=O)CNC(=O)[C@H](CC(C)C)NC1=O [Gva6,alphaAbu8,Ava14,15] ({Pentanoyl(5-guanidino)}-C[Abu]LGRVY[Ava]C-NH2; disulfide 1-9)
### Response criterion not met

### Prompt API: above_or_equal(metric=pKi, cutoff=7) for item CSCC[C@@H]1NC(=O)[C@@H](NC(=O)[C@H](CCCNC(=N)N)NC(C)=O)CSSC[C@@H](C(N)=O)NC(=O)[C@@H]2CCCN2C(=O)[C@H](CCCNC(=N)N)NC(=O)[C@H](Cc2ccc(O)cc2)NC(=O)[C@H](C(C)C)NC(=O)[C@H](CCCNC(=N)N)NC(=O)CNC(=O)[C@H](CC(C)C)NC1=O
### Response criterion met

### Prompt API: above_or_equal(metric=pKi, cutoff=7) for item CC(=O)N[C@@H](CCCN=C(N)N)C(=O)N[C@H]1CSSC[C@@H](C(N)=O)NC(=O)[C@@H]2CCCN2C(=O)[C@H](CCCN=C(N)N)NC(=O)[C@H](Cc2ccc(O)cc2)NC(=O)[C@H](C(C)C)NC(=O)[C@H](CCCN=C(N)N)NC(=O)CCCCCCCNC1=O [Aoct8,9,10] (Ac-RC[Aoc]RVYRPC-NH2; disulfide 2-9)
### Response criterion not met
